experimental system: hFSP1 (Homo sapiens)
Sequence (Q9BRQ8 whole entry): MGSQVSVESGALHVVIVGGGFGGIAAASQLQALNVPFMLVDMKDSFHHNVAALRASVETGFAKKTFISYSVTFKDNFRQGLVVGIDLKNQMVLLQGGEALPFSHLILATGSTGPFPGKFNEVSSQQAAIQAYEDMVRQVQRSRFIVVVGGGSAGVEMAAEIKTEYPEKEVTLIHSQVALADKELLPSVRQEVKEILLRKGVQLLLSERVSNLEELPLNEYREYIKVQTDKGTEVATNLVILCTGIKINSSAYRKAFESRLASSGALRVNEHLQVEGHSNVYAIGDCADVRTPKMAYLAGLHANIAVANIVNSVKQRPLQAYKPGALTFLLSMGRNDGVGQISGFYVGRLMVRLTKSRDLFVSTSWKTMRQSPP
experiment summary: Dose-response of screening hits, cell survival by Aquabluer in hFSP1 GPX4 KO cells
condition parameters: FSP1 overexpressing cells lacking GPX4
value kind: EC50

[[record]]
compound_smiles = "COc1cc(C(=O)Nc2cccc(-n3c(C)nc4ccccc4c3=O)c2)cc(OC)c1OC"
result = "< 1000 nM"

[[record]]
compound_smiles = "COc1cc(CC(=O)Nc2cnc(-n3c(C)nc4ccccc4c3=O)cn2)cc(OC)c1OC"
result = "> 1000 nM"

[[record]]
compound_smiles = "Cc1cccc(CC(=O)Nc2ccc(-n3c(C)nc4ccccc4c3=O)cc2)c1"
result = "< 1000 nM"

[[record]]
compound_smiles = "CCOc1ccc(CC(=O)Nc2ccc(-n3c(C)nc4ccccc4c3=O)cc2)cc1"
result = "> 1000 nM"

[[record]]
compound_smiles = "Cc1ccccc1CC(=O)Nc1ccc(-n2c(C)nc3ccccc3c2=O)cc1C"
result = "> 1000 nM"


INPUT: Give reported EC50 value for `COc1ccc(CC(=O)Nc2ccc(-n3c(C)nc4ccccc4c3=O)cc2)c(Cl)c1`
OUTPUT: < 1000 nM
